B1: ZNF193 (parent)
chain: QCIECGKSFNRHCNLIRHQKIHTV

# Variants of: B1
# Measurement protocol: protein stability index of a GFP-peptide fusion (GPS, HEK-293T) (PSI 1-6); higher = more stable;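 note: lentivirally expressed fusions sorted by FACS into six bins by GFP to DsRed ratio, PSI derived from sequencing read proportions per bin multiplied by bin number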
# Stated conditions: c terminus: a fixed tail appended
Overview of reported protein stability index across a group of variants:

{"columns": ["Input sequence", "protein stability index"],
 "data": [
  ["QCIECGKSFNRHCNYIRHQKIHTV [L15Y]", 3.35],
  ["QCIECGKSFNRHCNLIRHQKIHTH [V24H]", 3.83]
]}

Q: Look at this variant and give its reported protein stability index. QCIECGKSFNRHCNLINHQKIHTV [R17N]
Result: 3.24

Q: Return reported protein stability index; argument: QCIECGKMFNRHCNLIRHQKIHTV [S8M]
Result: 3.48

Q: Need protein stability index, item QCIECGKSFNRHWNLIRHQKIHTV [C13W]
Result: 3.04

Q: # protein stability index lookup, item QCIECGKSFNCHCNLIRHQKIHTV [R11C]
Result: 3.55

Q: Field request: protein stability index | item: QCIECGKSFNRHCNLIRHIKIHTV [Q19I]
Result: 2.8

Q: Can you share its protein stability index? I mean this variant: QCIECGKSFNRHSNLIRHQKIHTV [C13S]
Result: 3.95

Q: Give the measured protein stability index of QCIECGKSFNRHCNLIRHQKAHTV [I21A] .
Result: 4

Q: Tell me the measured protein stability index of QHIECGKSFNRHCNLIRHQKIHTV [C2H] , please.
Result: 1.6

// data source = the supplement of paper PMC10567573
